Where do the numbers come from? From patent US20260275242A1.

# assayText: pKa of chelating agents (Table 1)
# Format: physicochemical
# runParameters: successive pKa values; (A)/(B) printed beside the catechin values
endpointLabel: pKa

[
  {
    "compound": "CCOC(=O)c1cc(O)c(O)c(O)c1 [Ethyl Gallate]",
    "pKa": 8.7
  },
  {
    "compound": "COC(=O)c1cc(O)c(O)c(O)c1 [Methyl Gallate]",
    "pKa": 8.7
  }
]
